Molecular target: Chloroquine resistance transporter (Plasmodium falciparum) (UniProt Q9N623)
Sequence (whole entry): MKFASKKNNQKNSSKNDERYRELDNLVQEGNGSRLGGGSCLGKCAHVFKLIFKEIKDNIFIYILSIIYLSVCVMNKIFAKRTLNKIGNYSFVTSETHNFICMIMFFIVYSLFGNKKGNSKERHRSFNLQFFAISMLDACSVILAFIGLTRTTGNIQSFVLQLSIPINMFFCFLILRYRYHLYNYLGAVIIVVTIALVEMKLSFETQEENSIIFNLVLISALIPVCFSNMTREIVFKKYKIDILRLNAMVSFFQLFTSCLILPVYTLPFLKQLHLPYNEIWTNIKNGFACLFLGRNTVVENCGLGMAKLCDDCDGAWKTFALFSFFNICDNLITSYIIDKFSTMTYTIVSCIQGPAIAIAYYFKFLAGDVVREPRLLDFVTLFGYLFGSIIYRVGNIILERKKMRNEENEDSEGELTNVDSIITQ
Assay: Inhibition of chloroquine-resistant Plasmodium falciparum Dd2 CRT expressed in Xenopus laevis oocytes plasma membrane assessed as reduction of [3H]-chloroquine transportation at 100 uM after 1 to 2 hrs
Format: cell-based
Activity calls are given as the source filed them. The rule behind the calls is not given here.
observed_property: inhibition

[[record]]
compound = "CN(C)CC/C=C(/c1ccc(Cl)cc1)c1ccccn1"
test_result = "inactive"

[[record]]
compound = "COc1cc(NC(C)CCCN)c2ncccc2c1 (stereo not given)"
test_result = "Active"

[[record]]
compound = "CC(CN1c2ccccc2Sc2ccccc21)N(C)C (stereo not given)"
test_result = "Active"

[[record]]
compound = "CN(C)CCCC(c1ccncc1)c1cccc(Cl)c1 (racemic)"
test_result = "inactive"

[[record]]
compound = "CN(C)CC/C=C(/c1ccccn1)c1ccccc1Cl"
test_result = "inactive"


###

Molecular target: Chloroquine resistance transporter (Plasmodium falciparum, UniProt Q9N623)
Assay: Inhibition of chloroquine-resistant Plasmodium falciparum Dd2 CRT expressed in Xenopus laevis oocytes plasma membrane assessed as reduction of [3H]-chloroquine transportation after 1 to 2 hrs
Assay type: cell-based
observed_property: IC50 (µM)

[[record]]
molecule = "CN(C)CCCC(c1cccc(Cl)c1)c1ccccn1 (racemic)"
u = "µM"
test_result = 66

[[record]]
molecule = "CN(C)CCC(c1cccc(Cl)c1)c1ccccn1 (racemic)"
u = "µM"
test_result = 63

[[record]]
molecule = "CC(CN1c2ccccc2Sc2ccccc21)N(C)C (configuration not stated)"
u = "µM"
test_result = 85

[[record]]
molecule = "CN(C)CCCCC(c1ccc(Cl)cc1)c1ccccn1 (racemic)"
u = "µM"
test_result = 180

[[record]]
molecule = "COc1cc(NC(C)CCCN)c2ncccc2c1 (configuration not stated)"
u = "µM"
test_result = 68

[[record]]
molecule = "CCN(CC)C/C=C(\\c1ccc(Cl)cc1)c1ccccn1"
u = "µM"
test_result = 321

[[record]]
molecule = "CN(C)CCC(c1ccc(Cl)cc1)c1ccccn1 (stereo in doubt; form 1)"
u = "µM"
test_result = 54


###

Molecular target: Chloroquine resistance transporter (Plasmodium falciparum) (UniProt Q9N623)
Sequence (whole entry): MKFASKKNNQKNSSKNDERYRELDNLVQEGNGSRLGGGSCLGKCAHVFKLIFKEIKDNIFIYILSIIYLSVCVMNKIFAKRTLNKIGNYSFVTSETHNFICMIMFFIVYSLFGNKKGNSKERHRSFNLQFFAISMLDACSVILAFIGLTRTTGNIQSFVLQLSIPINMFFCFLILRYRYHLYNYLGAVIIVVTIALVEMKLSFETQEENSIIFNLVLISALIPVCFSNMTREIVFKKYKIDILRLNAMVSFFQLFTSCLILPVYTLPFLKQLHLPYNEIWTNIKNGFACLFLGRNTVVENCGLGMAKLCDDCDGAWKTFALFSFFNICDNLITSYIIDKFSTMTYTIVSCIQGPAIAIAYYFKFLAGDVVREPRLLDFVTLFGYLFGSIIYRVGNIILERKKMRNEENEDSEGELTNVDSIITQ
Experiment: Inhibition of CTR in Plasmodium falciparum C67G8 expressing chloroquine-resistance-conferring pfcrt alleles assessed as increase of accumulation of [3H]-chloroquine level at 1 uM after 1 hr relative to control
observed_property: fold change (FC)

[[record]]
compound = "CN(C)CCC(c1ccc(Cl)cc1)c1ccccn1 (stereo in doubt; form 1)"
observed_property = "fold change (FC)"
test_result = 2

[[record]]
compound = "CN(C)CCCCC(c1ccc(Cl)cc1)c1ccccn1 (racemic)"
observed_property = "fold change (FC)"
test_result = 1.8

[[record]]
compound = "CCN(CC)C/C=C(\\c1ccc(Cl)cc1)c1ccccn1"
observed_property = "fold change (FC)"
test_result = 1.4

[[record]]
compound = "COc1ccc(CCN(C)CCCC(C#N)(c2ccc(OC)c(OC)c2)C(C)C)cc1OC (stereo not given)"
observed_property = "fold change (FC)"
test_result = 1.9

[[record]]
compound = "CN(C)CCCC(c1cccc(Cl)c1)c1ccccn1 (racemic)"
observed_property = "fold change (FC)"
test_result = 2


###

Target: Chloroquine resistance transporter (Plasmodium falciparum)
Sequence (whole entry): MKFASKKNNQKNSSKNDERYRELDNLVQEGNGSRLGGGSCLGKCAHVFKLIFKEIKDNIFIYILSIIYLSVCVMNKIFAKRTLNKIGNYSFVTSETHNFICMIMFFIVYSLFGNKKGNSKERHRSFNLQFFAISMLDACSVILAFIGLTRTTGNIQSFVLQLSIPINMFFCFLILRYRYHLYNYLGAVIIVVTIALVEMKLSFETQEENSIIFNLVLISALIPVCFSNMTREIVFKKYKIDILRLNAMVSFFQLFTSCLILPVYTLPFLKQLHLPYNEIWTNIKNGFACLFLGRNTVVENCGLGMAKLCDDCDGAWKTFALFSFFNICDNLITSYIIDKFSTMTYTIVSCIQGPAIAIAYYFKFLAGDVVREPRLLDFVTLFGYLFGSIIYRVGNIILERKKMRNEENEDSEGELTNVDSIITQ
Experiment: Inhibition of chloroquine-resistant Plasmodium falciparum Dd2 CRT expressed in Xenopus laevis oocytes plasma membrane assessed as reduction of [3H]-chloroquine transportation at 100 uM after 1 to 2 hrs
Assay type: cell-based
The source made the active and inactive calls. The calls are words filed in the database; no cut-off is given here.
Labels: 1.0 for active, 0.0 for inactive

[[record]]
compound = "CN(C)CCCCC(c1ccc(Cl)cc1)c1ccccn1 (racemic)"
class_name = 0.0

[[record]]
compound = "CN(C)CC/C=C(\\c1ccc(Cl)cc1)c1ccccn1"
class_name = 0.0

[[record]]
compound = "CN(C)CCCC(c1cccnc1)c1cccc(Cl)c1 (racemic)"
class_name = 0.0

[[record]]
compound = "CN(C)C/C=C(\\c1cccc(Cl)c1)c1ccccn1"
class_name = 0.0

[[record]]
compound = "CN(C)CCC(c1ccc(Cl)cc1)c1ccccn1 (stereo in doubt; form 1)"
class_name = 1.0

[[record]]
compound = "CCN(CC)C/C=C(/c1ccc(Cl)cc1)c1ccccn1"
class_name = 0.0

[[record]]
compound = "CN(C)CCCCCC(c1ccc(Cl)cc1)c1ccccn1 (racemic)"
class_name = 0.0

[[record]]
compound = "CN(C)CCCC(c1cccc(Cl)c1)c1ccccn1 (racemic)"
class_name = 0.0

[[record]]
compound = "CN(C)CCCC(c1ccccc1)c1ccccn1 (racemic)"
class_name = 0.0

[[record]]
compound = "CN(C)CCCC(c1ccc(Cl)cc1)c1ccccn1 (racemic)"
class_name = 0.0

[[record]]
compound = "CN(C)CCC(c1cccc(Cl)c1)c1ccccn1 (racemic)"
class_name = 0.0


###

Biological target: Chloroquine resistance transporter (Plasmodium falciparum) (UniProt Q9N623)
Experiment: Inhibition of CTR in Plasmodium falciparum C2GC03 expressing wild-type pfcrt allele assessed as increase of accumulation of [3H]-chloroquine level at 1 uM after 1 hr
Activity calls are given as the source filed them. No cut-off for these calls is given here.
observed_property: inhibition

[[record]]
molecule = "CN(C)CCCC(c1ccccc1)c1ccccn1 (racemic)"
target_desc = "Chloroquine resistance transporter (Plasmodium falciparum) (UniProt Q9N623)"
test_result = "inactive"

[[record]]
molecule = "CCN(CC)CCC(c1ccc(Cl)cc1)c1ccccn1 (racemic)"
target_desc = "Chloroquine resistance transporter (Plasmodium falciparum) (UniProt Q9N623)"
test_result = "inactive"

[[record]]
molecule = "CN(C)C/C=C(/c1cccc(Cl)c1)c1ccccn1"
target_desc = "Chloroquine resistance transporter (Plasmodium falciparum) (UniProt Q9N623)"
test_result = "inactive"

[[record]]
molecule = "CN(C)CCCC(c1ccncc1)c1cccc(Cl)c1 (racemic)"
target_desc = "Chloroquine resistance transporter (Plasmodium falciparum) (UniProt Q9N623)"
test_result = "inactive"

[[record]]
molecule = "CN(C)C/C=C(\\c1cccc(Cl)c1)c1ccccn1"
target_desc = "Chloroquine resistance transporter (Plasmodium falciparum) (UniProt Q9N623)"
test_result = "inactive"

[[record]]
molecule = "COc1ccc(CCN(C)CCCC(C#N)(c2ccc(OC)c(OC)c2)C(C)C)cc1OC (stereo unspecified)"
target_desc = "Chloroquine resistance transporter (Plasmodium falciparum) (UniProt Q9N623)"
test_result = "inactive"

[[record]]
molecule = "CN(C)CCC/C=C(/c1ccc(Cl)cc1)c1ccccn1"
target_desc = "Chloroquine resistance transporter (Plasmodium falciparum) (UniProt Q9N623)"
test_result = "inactive"

[[record]]
molecule = "CN(C)CC/C=C(/c1ccccn1)c1ccccc1Cl"
target_desc = "Chloroquine resistance transporter (Plasmodium falciparum) (UniProt Q9N623)"
test_result = "inactive"

[[record]]
molecule = "CN(C)CCCCCC(c1ccc(Cl)cc1)c1ccccn1 (racemic)"
target_desc = "Chloroquine resistance transporter (Plasmodium falciparum) (UniProt Q9N623)"
test_result = "inactive"

[[record]]
molecule = "CN(C)CCCC(c1cccc(Cl)c1)c1ccccn1 (racemic)"
target_desc = "Chloroquine resistance transporter (Plasmodium falciparum) (UniProt Q9N623)"
test_result = "inactive"

[[record]]
molecule = "N#C/C=C(/c1ccccc1)c1ccccn1"
target_desc = "Chloroquine resistance transporter (Plasmodium falciparum) (UniProt Q9N623)"
test_result = "inactive"

[[record]]
molecule = "CN(C)CCCC(c1cccc(Cl)c1)c1cnccn1 (racemic)"
target_desc = "Chloroquine resistance transporter (Plasmodium falciparum) (UniProt Q9N623)"
test_result = "inactive"

[[record]]
molecule = "CN(C)CCC(c1ccc(Cl)cc1)c1ccccn1 (stereo in doubt; form 1)"
target_desc = "Chloroquine resistance transporter (Plasmodium falciparum) (UniProt Q9N623)"
test_result = "inactive"

[[record]]
molecule = "CN(C)CCCC(c1cccnc1)c1cccc(Cl)c1 (racemic)"
target_desc = "Chloroquine resistance transporter (Plasmodium falciparum) (UniProt Q9N623)"
test_result = "inactive"

[[record]]
molecule = "N#C/C=C(\\c1ccccc1)c1ccccn1"
target_desc = "Chloroquine resistance transporter (Plasmodium falciparum) (UniProt Q9N623)"
test_result = "inactive"

[[record]]
molecule = "CN(C)CC/C=C(/c1cccc(Cl)c1)c1ccccn1"
target_desc = "Chloroquine resistance transporter (Plasmodium falciparum) (UniProt Q9N623)"
test_result = "inactive"

[[record]]
molecule = "CN(C)CCC(c1ccc(Cl)cc1)c1ccccn1 (stereo in doubt; form 2)"
target_desc = "Chloroquine resistance transporter (Plasmodium falciparum) (UniProt Q9N623)"
test_result = "inactive"

[[record]]
molecule = "CN(C)CCCC(c1ccccn1)c1ccccc1Cl (racemic)"
target_desc = "Chloroquine resistance transporter (Plasmodium falciparum) (UniProt Q9N623)"
test_result = "inactive"

[[record]]
molecule = "CCN(CC)C/C=C(\\c1ccc(Cl)cc1)c1ccccn1"
target_desc = "Chloroquine resistance transporter (Plasmodium falciparum) (UniProt Q9N623)"
test_result = "inactive"

[[record]]
molecule = "CN(C)CC/C=C(\\c1ccc(Cl)cc1)c1ccccn1"
target_desc = "Chloroquine resistance transporter (Plasmodium falciparum) (UniProt Q9N623)"
test_result = "inactive"

[[record]]
molecule = "CN(C)CC/C=C(\\c1cccc(Cl)c1)c1ccccn1"
target_desc = "Chloroquine resistance transporter (Plasmodium falciparum) (UniProt Q9N623)"
test_result = "inactive"

[[record]]
molecule = "CN(C)CCC(c1cccc(Cl)c1)c1ccccn1 (racemic)"
target_desc = "Chloroquine resistance transporter (Plasmodium falciparum) (UniProt Q9N623)"
test_result = "inactive"

[[record]]
molecule = "CN(C)CC/C=C(/c1ccc(Cl)cc1)c1ccccn1"
target_desc = "Chloroquine resistance transporter (Plasmodium falciparum) (UniProt Q9N623)"
test_result = "inactive"

[[record]]
molecule = "CN(C)CCC/C=C(\\c1ccc(Cl)cc1)c1ccccn1"
target_desc = "Chloroquine resistance transporter (Plasmodium falciparum) (UniProt Q9N623)"
test_result = "inactive"

[[record]]
molecule = "CN(C)CCCC(c1ccc(Cl)cc1)c1ccccn1 (racemic)"
target_desc = "Chloroquine resistance transporter (Plasmodium falciparum) (UniProt Q9N623)"
test_result = "inactive"

[[record]]
molecule = "CN(C)CCCCC(c1ccc(Cl)cc1)c1ccccn1 (racemic)"
target_desc = "Chloroquine resistance transporter (Plasmodium falciparum) (UniProt Q9N623)"
test_result = "inactive"


Data credit: ChEMBL document CHEMBL3286244
